Target: 3-hydroxy-3-methylglutaryl-coenzyme A reductase (Homo sapiens, UniProt P04035)
Sequence (P04035 whole entry): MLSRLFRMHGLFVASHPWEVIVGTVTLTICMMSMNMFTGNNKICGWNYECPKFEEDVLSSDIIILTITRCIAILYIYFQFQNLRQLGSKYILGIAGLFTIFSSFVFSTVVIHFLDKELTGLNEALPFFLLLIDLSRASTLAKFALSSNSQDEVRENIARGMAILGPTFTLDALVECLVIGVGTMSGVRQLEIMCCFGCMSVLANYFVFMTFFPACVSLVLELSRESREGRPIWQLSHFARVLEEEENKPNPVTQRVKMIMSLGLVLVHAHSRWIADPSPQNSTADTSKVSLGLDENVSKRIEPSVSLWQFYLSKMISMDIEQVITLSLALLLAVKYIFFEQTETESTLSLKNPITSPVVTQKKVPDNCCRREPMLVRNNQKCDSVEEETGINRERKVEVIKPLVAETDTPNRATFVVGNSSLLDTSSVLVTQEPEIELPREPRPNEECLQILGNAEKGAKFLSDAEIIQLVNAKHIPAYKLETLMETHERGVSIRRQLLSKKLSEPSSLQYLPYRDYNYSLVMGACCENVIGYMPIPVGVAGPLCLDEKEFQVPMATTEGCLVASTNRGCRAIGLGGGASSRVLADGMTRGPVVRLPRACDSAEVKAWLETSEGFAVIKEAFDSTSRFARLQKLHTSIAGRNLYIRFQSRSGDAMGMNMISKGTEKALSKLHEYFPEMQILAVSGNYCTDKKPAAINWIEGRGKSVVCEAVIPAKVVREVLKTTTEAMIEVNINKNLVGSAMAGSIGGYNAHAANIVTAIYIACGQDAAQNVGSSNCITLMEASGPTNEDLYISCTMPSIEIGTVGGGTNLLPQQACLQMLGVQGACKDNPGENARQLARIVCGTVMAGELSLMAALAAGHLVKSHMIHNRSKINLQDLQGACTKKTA
Experiment: Inhibition of human HMGCoA reductase
Details: read-out: IC50
For each entry below, report its pIC50 value.
// pIC50 is dimensionless: -log10 of concentration (M)

State the recorded pIC50 for this entry: `CCCCCCCCC#CC#C/C=C/CCCC(=O)O`
6.30

State the recorded pIC50 for this entry: CCCCCCCCC#CC#CC1OC1CCCC(=O)O (configuration not stated)
5.30

State the recorded pIC50 for this entry: `CCCCCCCCC#CC#CCCCCCC(=O)O`
5.30

State the recorded pIC50 for this entry: `CCCCCCCCC#CC#C/C=C\CCCC(=O)O`
5.82

State the recorded pIC50 for this entry: CCCCCCCCC#CC#CC(O)CCCCC(=O)O (configuration not stated)
5.15

State the recorded pIC50 for this entry: `CCCCC#CC#CCCCCCC(=O)O`
5.52

State the recorded pIC50 for this entry: `CCCCCCCCC#CCCCCCCCC(=O)O`
5.30

All figures here come from ChEMBL document CHEMBL1147276.
